B1: TPR t1 (parent)
chain: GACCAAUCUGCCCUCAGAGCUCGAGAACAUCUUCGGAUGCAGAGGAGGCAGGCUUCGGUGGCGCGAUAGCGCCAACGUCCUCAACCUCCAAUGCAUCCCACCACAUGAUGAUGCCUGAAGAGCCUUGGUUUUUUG

Variants of: B1
Experiment: polymerase ribozyme fitness, log enrichment relative to wild type (log ratio); higher = more active; in vitro selection for triplet polymerase activity
Kind request: treat -1 as inclusive, so polymerase ribozyme fitness (log ratio) at -1 or higher is Yes, anything lower is No.

// below: answered variants
MUTATIONS | CATEGORY_LABEL
C64U U87A U109C | No
A5G G44C C82A | No
A18U U81A | No

// inclusive: polymerase ribozyme fitness (log ratio) at least -1? input: C85A G110A G127A
No

Lookup A37U G63C C104U U116C
No

Lookup G10U G47C C64U
No

Lookup A46C C56G C72G U87A A100U
No

Lookup U38C A50U
Yes

Lookup G51U C70U
No

Lookup A37U U81A C101A G110U
No

Lookup U21C G52U G60C
No

Lookup G47A C49A U132A
No

Lookup U78G G93A
Yes

Lookup U7G C20A G39A C49G G61C A121G
No
